# Target under test: Angiopoietin-1 receptor (Homo sapiens)
# Sequence (Q02763 whole entry): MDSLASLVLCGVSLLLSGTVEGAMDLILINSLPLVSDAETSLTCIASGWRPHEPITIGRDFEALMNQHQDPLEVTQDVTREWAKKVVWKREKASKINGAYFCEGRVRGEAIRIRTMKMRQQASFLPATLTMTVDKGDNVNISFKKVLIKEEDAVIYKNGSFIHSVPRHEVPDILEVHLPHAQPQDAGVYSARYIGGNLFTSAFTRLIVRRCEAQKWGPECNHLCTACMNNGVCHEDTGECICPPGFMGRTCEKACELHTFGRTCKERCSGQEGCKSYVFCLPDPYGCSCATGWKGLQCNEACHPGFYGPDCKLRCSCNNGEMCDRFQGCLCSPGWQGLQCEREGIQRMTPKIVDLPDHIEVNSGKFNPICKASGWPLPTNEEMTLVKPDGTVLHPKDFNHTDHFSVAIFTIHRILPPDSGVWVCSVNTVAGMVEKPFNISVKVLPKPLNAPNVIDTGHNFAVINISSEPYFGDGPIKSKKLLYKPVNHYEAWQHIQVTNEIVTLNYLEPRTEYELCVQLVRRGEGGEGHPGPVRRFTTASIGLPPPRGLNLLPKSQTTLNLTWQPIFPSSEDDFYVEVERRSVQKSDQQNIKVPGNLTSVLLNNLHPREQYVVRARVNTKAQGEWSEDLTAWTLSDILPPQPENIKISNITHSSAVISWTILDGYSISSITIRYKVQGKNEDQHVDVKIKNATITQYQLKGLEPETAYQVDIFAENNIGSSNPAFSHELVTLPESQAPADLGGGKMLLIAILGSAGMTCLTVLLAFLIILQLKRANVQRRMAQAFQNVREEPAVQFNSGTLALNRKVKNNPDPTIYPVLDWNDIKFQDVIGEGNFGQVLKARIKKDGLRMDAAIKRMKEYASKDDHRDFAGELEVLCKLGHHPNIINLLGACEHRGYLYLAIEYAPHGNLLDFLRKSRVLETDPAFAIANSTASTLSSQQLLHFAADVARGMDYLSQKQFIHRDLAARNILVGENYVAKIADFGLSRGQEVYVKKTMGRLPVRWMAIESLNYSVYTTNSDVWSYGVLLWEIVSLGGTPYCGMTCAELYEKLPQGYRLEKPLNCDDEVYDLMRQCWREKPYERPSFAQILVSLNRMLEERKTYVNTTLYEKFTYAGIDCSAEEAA
pIC50: −log10 of the molar value.
Criterion: pIC50 meeting or surpassing 8. Met: Criterion met. Not met: Criterion not met.

Reference set (3 entries):
Smiles string	Target under test	Class
CCCn1c2ccc(NC(=O)Nc3cccs3)cc2c2c3c(c4c(c21)CCc1nn(C)cc1-4)C(=O)NC3	Angiopoietin-1 receptor (Homo sapiens)	Criterion not met
CCCn1c2ccc(NC(=O)Nc3cccc(F)c3)cc2c2c3c(c4c(c21)CCc1nn(C)cc1-4)C(=O)NC3	Angiopoietin-1 receptor (Homo sapiens)	Criterion met
CCCn1c2ccc(NC(=O)Nc3ccccc3Cl)cc2c2c3c(c4c(c21)CCc1nn(C)cc1-4)C(=O)NC3	Angiopoietin-1 receptor (Homo sapiens)	Criterion met

Now for a further molecule.
Input: I'd appreciate it if you could say whether CCCn1c2ccc(NC(=O)Nc3ccccc3Br)cc2c2c3c(c4c(c21)CCc1nn(C)cc1-4)C(=O)NC3 has pIC50 at least equal to 8.
Output: Criterion met

---

# Assay details: Tmax in rat at 5 mg/kg, po
# Format: ADME, organism-based
# Parameters: dose 5 mg/kg, route oral
# Experimental conditions: in vivo
Property measured: Tmax (h)
Number only, in h; omit the unit.

Input: Given the entry CCCn1c2ccc(NC(=O)OC(C)C)cc2c2c3c(c4c(c21)CCc1nn(C)cc1-4)C(=O)NC3 , report its measured Tmax.
Output: 4

---

# Assay details: Volume of distribution in rat at 1 mg/kg, iv
# Type: ADME, organism-based
# Parameters: dose 1 mg/kg, route intravenous
# Experimental conditions: in vivo, read-out: Vdss
Property measured: Vd (L/kg)
Respond with the bare value in L/kg.

Input: Which Vd reading was recorded for the compound CCCn1c2ccc(NC(=O)OC(C)C)cc2c2c3c(c4c(c21)CCc1nn(C)cc1-4)C(=O)NC3 ?
Output: 2.34

---

# Target under test: Angiopoietin-1 receptor (Homo sapiens)
Property measured: IC50 (nM)
Write it as a number; the unit nM goes unstated.

Guide cases for IC50, answers given:
Smiles string	IC50 (nM)
CCCOC(=O)Nc1ccc2c(c1)c1c3c(c4c(c1n2CCC)CCc1nn(C)cc1-4)C(=O)NC3	7
CCCn1c2ccc(NC(=O)Nc3ccc(OC)cc3)cc2c2c3c(c4c(c21)CCc1nn(C)cc1-4)C(=O)NC3	2
CCCn1c2ccc(NC(=O)Nc3ccc(SC)cc3)cc2c2c3c(c4c(c21)CCc1nn(C)cc1-4)C(=O)NC3	3
CCCn1c2ccc(NC(=O)Nc3cc(C(F)(F)F)ccc3F)cc2c2c3c(c4c(c21)CCc1nn(C)cc1-4)C(=O)NC3	4

Input: Give Angiopoietin-1 receptor (Homo sapiens) IC50 for COc1ccc(NC(=O)Nc2ccc3c(c2)c2c4c(c5c(c2n3CC(C)C)CCc2nn(C)cc2-5)C(=O)NC4)cc1
Output: 3

Input: And then CC(C)Cn1c2ccc(NC(=O)c3ccco3)cc2c2c3c(c4c(c21)CCc1nn(C)cc1-4)C(=O)NC3 , what is it?
Output: 20

Input: Same thing, different compound: CCCCn1c2ccc(N)cc2c2c3c(c4c(c21)CCc1nn(C)cc1-4)C(=O)NC3
Output: 230

Input: Try this compound next: CCCn1c2ccc(NC(=O)N(C)c3ccccc3)cc2c2c3c(c4c(c21)CCc1nn(C)cc1-4)C(=O)NC3
Output: 2
